- System: UACC-62 melanoma
- assay-text: NCI tumour cell line growth inhibition, 48 h
# reported TGI; entries follow

{"compound": "COC(=O)/C(C)=C(/CCC1(C)OCCO1)O[Si](C)(C)C", "system-tested": "UACC-62 melanoma", "obs-value": "> 100 µM"}

Query :: Any idea what TGI was measured for `CN(C)CCCSc1nc2ccccc2[nH]1` ?
Result :: > 100 µM

Query :: Any idea what TGI was measured for `O=c1oc2ccc3ccccc3c2cc1-c1cn2ccccc2n1` ?
Result :: > 100 µM

Query :: Any idea what TGI was measured for `FC(F)(F)c1ccc(Nc2nc(-c3c(C(F)(F)F)nc4ccccn34)cs2)cc1` ?
Result :: 3.43 µM

Query :: Any idea what TGI was measured for `COc1ccc(/C(COc2ccc3c(=O)cc(-c4ccccc4)oc3c2)=N\O)cc1` ?
Result :: 31.4 µM

Query :: Any idea what TGI was measured for `OC(c1ccccc1)(c1ccccc1)c1ccncc1` ?
Result :: > 100 µM

Query :: Any idea what TGI was measured for `C=CCN1C(=O)C=C(c2ccccc2)n2ncc3cccc1c32` ?
Result :: > 100 µM

Query :: Any idea what TGI was measured for `COc1cc(OC(=O)c2ccccc2)cc2c1C(=O)C=CC2=O` ?
Result :: 28.5 µM

Query :: Any idea what TGI was measured for `Cn1c2ccccc2n2c(N=O)c(-c3ccccc3)nc12` ?
Result :: > 100 µM

Query :: Any idea what TGI was measured for CC1C2(C)OC(=N)C(C#N)(C(c3ccccc3)O2)C1(C#N)C#N (stereo unspecified) ?
Result :: 56.4 µM

Query :: Any idea what TGI was measured for `Cn1cc(C(=O)NCCC(=N)N)cc1NC(=O)C1=[N+](C)C=C(NC(=O)c2cccc(C(=O)NC3=CC(C(=O)Nc4cc(C(=O)NCCC(=N)N)cn4C)=[N+](C)C3)c2)C1` ?
Result :: > 100 µM

Query :: Any idea what TGI was measured for `O=C([O-])C[n+]1ccccc1` ?
Result :: > 100 µM

Query :: Any idea what TGI was measured for `COc1cc2c(oc(=O)c3c4oc([Si](C)(C)C)cc4cc(OC)c23)c2cccc(OCc3ccccc3)c12` ?
Result :: 37.6 µM

* * *

- Tested on: UACC-257 melanoma
- assay-text: NCI tumour cell line growth inhibition, 48 h; in the data active = GI50 below about 0.43 µM; inactive = the rest
Return exactly one item of T for active, F for inactive

Observe how each entry below is paired with its result.
{"compound": "CC1CCC(NC(=O)N(CCCl)N=O)CC1 (stereo not drawn)", "discrete-label": "F"}
{"compound": "O=C(CCCCCCCCC(=O)N/N=C\\c1ccccc1O)N/N=C\\c1ccccc1O", "discrete-label": "T"}

# next compound below
Query :: Recorded test outcome, item `COc1ccc2cc(C(=O)/C=C/c3ccc(Cl)cc3Cl)ccc2c1`
Result :: F

* * *

# reported TGI; entries follow
- Tested on: PC-3 prostate
- assay-text: NCI tumour cell line growth inhibition, 48 h

{"compound": "CCOC(=O)/C(C#N)=C\\c1ccc(N(CCC(=O)O)CCC(=O)O)c(I)c1", "property-measured": "TGI", "obs-value": "> 10 µM"}

Query :: Request body: readout TGI, system PC-3 prostate, query `C=C(C)C1=CCC[C@]2(C1)N=C(OC)[C@@H](C(C)C)N=C2OC` . Return the value.
Result :: > 100 µM

Query :: Request body: readout TGI, system PC-3 prostate, query `Cn1c2ccccc2c2c(-c3ccccc3)cc3c(c21)C(=O)C=CC3=O` . Return the value.
Result :: > 6.39 µM

Query :: Request body: readout TGI, system PC-3 prostate, query `CC(C)=CCC/C(C)=C/CC/C(C)=C/CC/C(C)=C/C=C/C=C(\C)CC/C=C(\C)CC/C=C(\C)CCC=C(C)C` . Return the value.
Result :: > 100 µM

Query :: Request body: readout TGI, system PC-3 prostate, query `O=C(Nc1ccc(Cl)cc1)NS(=O)(=O)c1coc2cc(F)ccc2c1=O` . Return the value.
Result :: > 100 µM

Query :: Request body: readout TGI, system PC-3 prostate, query CCC1C2Cc3ccc(O)cc3C1(CC)CCN2C (centres undefined) . Return the value.
Result :: > 100 µM

Query :: Request body: readout TGI, system PC-3 prostate, query `[N-]=[N+]=Nc1ccccc1C(=O)N1C(=O)c2ccccc2C(=O)N(C(=O)c2ccccc2N=[N+]=[N-])c2ccccc21` . Return the value.
Result :: > 100 µM

Query :: Request body: readout TGI, system PC-3 prostate, query CCCCCCCCCCCCCCCCCCNc1ccn(C2OC(COP(=O)(O)OCC3OC(n4cc(F)c(=O)[nH]c4=O)CC3O)C(O)C2O)c(=O)n1 (centres undefined) . Return the value.
Result :: 19.7 µM

* * *

- Tested on: SN12C renal
- assay-text: NCI tumour cell line growth inhibition, 48 h
property-measured: TGI

{"compound": "CC(C)Cn1cnc2c(NCC(C)O)nc3ccccc3c21 (stereo not given)", "TGI": "> 100 µM"}
{"compound": "O=c1[nH]c2cc(Cl)ccc2nc1/C(=N\\O)C(O)c1cccc([N+](=O)[O-])c1 (stereo not given)", "TGI": "> 100 µM"}
{"compound": "COc1cc(/C=C2/C(=O)N(C(=O)OCC(C)C)C(Cc3cc(OC)c(OC)c(C)c3OC)C(=O)N2Cc2ccccc2)c(OC)c(C)c1OC (stereo not given)", "TGI": "> 100 µM"}
{"compound": "COc1cc(OC(=O)c2ccccc2)cc2c1C(=O)C=CC2=O", "TGI": "45 µM"}
{"compound": "COc1ccc2[nH]c(O)c(N=NC(=O)c3oc4ccccc4c3C)c2c1", "TGI": "> 100 µM"}
{"compound": "CC[C@]1(Cc2ccc(OC)c(OC)c2)C=[N+]([O-])O[C@H](OC2CCCC2(c2ccccc2)c2ccccc2)[C@@H]1OC(=O)c1ccccc1 (stereo not given in full)", "TGI": "> 88.2 µM"}

Query :: Any idea what TGI was measured for COC1(OC)c2no[n+]([O-])c2CCC1O (stereo not given) ?
Result :: > 100 µM

Query :: Any idea what TGI was measured for `FC(F)(F)c1ccc(Nc2nc(-c3c(C(F)(F)F)nc4ccccn34)cs2)cc1` ?
Result :: 8.28 µM

Query :: Any idea what TGI was measured for `COc1ccc(-c2c[nH]c(C(=O)O)c2-c2cc(OC)c(OC)c(OC)c2)cc1` ?
Result :: > 100 µM

Query :: Any idea what TGI was measured for `CN(O)c1nc(N(C)O)nc(N2CCOCC2)n1` ?
Result :: > 100 µM

* * *

# reported TGI; entries follow
- System: OVCAR-5 ovarian
- assay-text: NCI tumour cell line growth inhibition, 48 h

Use these answered entries as a reference point.
{"molecule": "COc1ccc(-c2cc(=O)[nH]c3c(OC)c4ccccc4c(OC)c23)cc1", "TGI": "> 100 µM"}
{"molecule": "COC1=C(OC)C(=O)C(Cc2c(Cl)nc3sc(C)cn23)=C(C)C1=O", "TGI": "35.9 µM"}

Lab note: next molecule to report on.
Query :: Any idea what TGI was measured for Cc1ccc2nc(NC(=O)C(=O)C(C#N)c3nc4ccccc4s3)sc2c1 (stereo not drawn) ?
Result :: > 100 µM

* * *

# reported TGI; entries follow
- System: K-562 leukemia
- assay-text: NCI tumour cell line growth inhibition, 48 h

{"molecule": "CCOC(=O)P(=O)(O)c1ccc(N(C)Cc2ccccc2)cc1", "property-measured": "TGI", "obs-value": "> 100 µM"}
{"molecule": "Cc1cccc(C)c1NC(=O)C(C#N)C1=C(Cl)C(=O)c2ccccc2C1=O (stereo not drawn)", "property-measured": "TGI", "obs-value": "> 36.4 µM"}
{"molecule": "COc1cc(CSc2nc3ccc(C)cc3c(=O)n2-c2ccccc2)cc(OC)c1OC", "property-measured": "TGI", "obs-value": "> 100 µM"}
{"molecule": "CCC1C2Cc3ccc(O)cc3C1(CC)CCN2C (stereo not drawn)", "property-measured": "TGI", "obs-value": "> 100 µM"}
{"molecule": "O=C(O)c1cc([N+](=O)[O-])cc2c(=O)c3cnccc3[nH]c12", "property-measured": "TGI", "obs-value": "> 100 µM"}

Query :: Request body: readout TGI, system K-562 leukemia, query Oc1c(C(Nc2cccc3cccnc23)c2ccccc2)ccc2cccnc12 (stereo not drawn) . Return the value.
Result :: > 100 µM

Query :: Request body: readout TGI, system K-562 leukemia, query O=C1/C(=C/c2ccccc2O)N=C(c2ccccc2)N1C1Nc2cc3c(cc2S1)NC(N1C(=O)/C(=C/c2ccccc2O)N=C1c1ccccc1)S3 (stereo not drawn) . Return the value.
Result :: > 100 µM

Query :: Request body: readout TGI, system K-562 leukemia, query CNc1ncnc2c1ncn2C1C=CC(COS(N)(=O)=O)C1 (stereo not drawn) . Return the value.
Result :: > 100 µM
